Target: T1, human CD73 on the cell surface of CHOK1-huCD73-3F4 cells (Huabo Biopharm) (human, UniProt P21589 27-549)
T1 construct: whole, on cells; also called cells expressing human CD73; CD73 on cell membrane
T1 sequence (looked up): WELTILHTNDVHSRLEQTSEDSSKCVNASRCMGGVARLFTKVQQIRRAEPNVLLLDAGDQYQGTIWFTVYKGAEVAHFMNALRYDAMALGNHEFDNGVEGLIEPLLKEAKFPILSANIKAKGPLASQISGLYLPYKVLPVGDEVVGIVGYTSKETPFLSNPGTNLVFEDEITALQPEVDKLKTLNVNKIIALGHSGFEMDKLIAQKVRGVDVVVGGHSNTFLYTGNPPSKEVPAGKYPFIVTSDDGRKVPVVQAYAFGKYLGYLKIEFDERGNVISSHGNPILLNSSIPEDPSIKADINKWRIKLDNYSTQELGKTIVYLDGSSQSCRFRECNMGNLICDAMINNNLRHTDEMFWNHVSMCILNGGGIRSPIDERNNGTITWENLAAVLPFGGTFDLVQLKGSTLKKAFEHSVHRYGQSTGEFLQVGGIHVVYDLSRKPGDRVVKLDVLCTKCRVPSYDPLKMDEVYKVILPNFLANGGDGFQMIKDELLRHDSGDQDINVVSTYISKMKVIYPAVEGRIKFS
Experiment: flow cytometry on CHOK1-huCD73-3F4 cells, PE-goat anti-human-Fc
metric name: EC50 (µg/mL)
Answers are plain numbers, in µg/mL.

Give one value of EC50 per listed binder.
1. 900567 (human-mouse chimeric anti-CD73 antigen-binding protein expressed from 124A9 variable regions) (antibody, V domains shown) VH: QVQLQQPGAELVKPGASVKLSCKASGYTFTSYWIHWVKQRPGQGLDWIGMIHPNSGSTYYNEKFKSKATLTVDKSSSTAYMQLSSLTSEDSAVYYCARYYGSDYEWYFDVWGTGTTVTVSS VL: DIVMTQSQKFMSTSVGDRVSITCKASQNVRTAVVWYQQNPGQSPKALIYLASNRHTGVPDRFTGSGSGTDFTLTISNVHSEDLADYFCLQHWNYPYTFGGGTKLEIK
2. 900726 (humanized anti-CD73 antigen-binding protein) (antibody, V domains shown) VH: QVQLVQSGAEVKKPGASVKLSCKASGYTFTSYWIHWVRQAPGQGLEWIGMIHPNSGSTYYNEKFKGRATLTVDKSTSTAYMELSSLRSEDTAVYYCARYYGSDYEWYFDVWGQGTTVTVSS VL: DIQMTQSPSSLSASVGDRVTITCKASQNVRTAVVWYQQKPGKAPKALIYLASNRHTGVPDRFSGSGSGTDFTLTISSLQPEDFATYYCLQHWNYPYTFGQGTKLEIK
3. 900725 (humanized anti-CD73 antigen-binding protein) (antibody, V domains shown) VH: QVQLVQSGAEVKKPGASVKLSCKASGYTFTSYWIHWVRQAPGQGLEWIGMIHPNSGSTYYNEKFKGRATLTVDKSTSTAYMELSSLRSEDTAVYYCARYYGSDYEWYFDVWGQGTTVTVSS VL: DIQMTQSPSSMSASVGDRVTITCKASQNVRTAVVWYQQKPGKAPKALIYLASNRHTGVPDRFSGSGSGTDFTLTISSLQPEDFATYFCLQHWNYPYTFGQGTKLEIK

0.065
0.174
0.106

Please give the measured EC50 for this binder: 900728 (humanized anti-CD73 antigen-binding protein) (antibody, V domains shown) VH: QVQLVQSGAEVKKPGASVKVSCKASGYTFTSYWIHWVRQAPGQGLEWIGMIHPNSGSTYYNEKFQGRVTMTVDKSTSTAYMELSSLRSEDTAVYYCARYYGSDYEWYFDVWGQGTTVTVSS VL: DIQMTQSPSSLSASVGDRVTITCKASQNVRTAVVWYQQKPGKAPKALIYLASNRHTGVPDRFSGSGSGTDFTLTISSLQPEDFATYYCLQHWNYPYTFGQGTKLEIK 0.105
